The following compounds are listed with their measured composite z-score values.
Tested on: Sam68 (KHDRBS1)
ASSAY NOTES: Sam68 small-molecule binders, primary screen, biochemical, small-molecule microarray, 635 nm fluorescence (AID 1125);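 note: score merges 667 nm channel intensity with signal to noise over triplicate slides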
SETUP CONDITIONS: small-molecule microarray binding, higher = more signal
Quick one: just the number, no unit, thanks!

Here's what some known entries look like.
O=C1N(CCS(=O)(=O)c2ccccc2)Cc2ccccc2[C@H]2OC(c3ccc(OCCCO)cc3)=N[C@@]12CCS(=O)(=O)c1ccccc1	1.3
CC(C)C(=C=CC[C@H](O)c1ccccc1OCCO)C[C@H](O)c1ccccn1	0.861

From here, focus on the item given below.
Find the recorded composite z-score belonging to `C=C(COC)C(=O)CC[C@H](OC(C)=O)c1cccc(OCCO)c1` and report it. 0.151

====

TARGET OR SYSTEM: NADPH oxidase 2 (Homo sapiens) (UniProt P04839)
Sequence (P04839 whole entry, looked up): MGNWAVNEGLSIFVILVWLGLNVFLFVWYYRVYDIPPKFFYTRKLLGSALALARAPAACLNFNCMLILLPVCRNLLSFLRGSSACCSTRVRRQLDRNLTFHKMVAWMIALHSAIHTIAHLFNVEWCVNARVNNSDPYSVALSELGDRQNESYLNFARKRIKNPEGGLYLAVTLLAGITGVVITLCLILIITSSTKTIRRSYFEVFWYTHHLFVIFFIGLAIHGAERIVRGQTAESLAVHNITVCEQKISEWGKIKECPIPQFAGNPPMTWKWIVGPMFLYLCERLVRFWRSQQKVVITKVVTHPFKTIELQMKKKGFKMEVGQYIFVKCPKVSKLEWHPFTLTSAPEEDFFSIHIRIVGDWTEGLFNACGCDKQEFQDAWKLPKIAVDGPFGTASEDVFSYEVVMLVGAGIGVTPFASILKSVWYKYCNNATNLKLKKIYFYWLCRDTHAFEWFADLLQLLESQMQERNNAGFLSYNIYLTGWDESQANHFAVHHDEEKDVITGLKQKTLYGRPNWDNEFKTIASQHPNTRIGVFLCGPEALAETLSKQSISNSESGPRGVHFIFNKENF
ASSAY NOTES: NOX2-dependent H2O2 signal modulators, primary screen, NOX inhibitor project, cell-based, HEK293-NOX2, PMA-stimulated, Amplex Red fluorescence (AID 1159); note: test concentration not given here
SETUP CONDITIONS: 45 min, higher = more signal, called active from +8 up or from −8 down
Assign class by z-score: not lower than -0.6 means class 1; lower than -0.6 means class 0.

Below, 5 compounds whose answers are already recorded.
O=C1O[C@@H](c2ccccc2)[C@@H](c2ccccc2)N2[C@@H](c3ccc(O)cc3)[C@]3(C(=O)Nc4ccc(C#CC5(O)CCCCCC5)cc43)[C@@H](C(=O)N3CCCCCCC3)[C@H]12	class 1
O=C(CCN1CCOCC1)c1cccc(O)c1	class 0
O=C1N(CCS(=O)(=O)c2ccccc2)c2ccccc2C[C@@]12COC(c1ccc(OCCCO)cc1)=N2	class 1
COc1ccc(CCNC(=O)[C@@]2(Sc3ccc(C)cc3)CC(=O)N(Cc3ccccc3Cl)[C@@H]2c2ccc(CO)cc2I)cc1	class 1
[N-]=[N+]=NCc1ccccc1C[C@]1(C(=O)NCCN2CCOCC2)N=C(c2ccc(OCCCO)cc2)O[C@H]1c1ccccc1N=[N+]=[N-]	class 0

Quick check: does `O=C1O[C@H](c2ccccc2)[C@H](c2ccccc2)N2[C@H]1[C@@H](C(=O)O)[C@]1(C(=O)Nc3ccc(C#CC4=CCCCC4)cc31)[C@H]2c1ccc(OCCO)cc1` have z-score greater than or equal to -0.6? class 1

Quick check: does `CC(C)Cc1ccc(CN2CC[C@@H](NS(=O)(=O)c3ccccc3)C2)cc1` have z-score greater than or equal to -0.6? class 1

Quick check: does `CC(C)C[C@@H]1NC(=O)[C@@H]2C[C@H](C(=O)NCCCCCC[N+](C)(C)C)[C@H](c3ccc(O)cc3)N2C1=O` have z-score greater than or equal to -0.6? class 1

====

ASSAY NOTES: inhibitors of hydroxyurea-induced Chk1 phosphorylation, primary screen, imaging, HeLa, phospho-Chk1 antibody, percent positive cells (AID 1186)
SETUP CONDITIONS: hydroxyurea-induced phospho-Chk1 immunofluorescence imaging, higher = more signal
Assign class by z-score: not lower than 0.6 means true; lower than 0.6 means false.

Below, 4 compounds whose answers are already recorded.
CCOC(=O)C[C@H]1[C@H](OC(=O)c2ccccc2-c2ccccc2)[C@@H](NC(=O)Cc2ccc(OC)cc2)c2cc(OCCCO)ccc2N1C(=O)c1ccccc1	false
O=C(CS)NCCCCCCNC(=O)[C@H]1C[C@H]2C(=O)NCC(=O)N2[C@H]1c1ccc(O)cc1	false
O=c1cccc(CCc2ccccc2)o1	false
COc1ccc(C#Cc2ccc3c(c2)[C@]2(C(=O)N3)[C@H](C(=O)NC[C@H](O)c3ccccc3)[C@H]3C(=O)O[C@H](c4ccccc4)[C@H](c4ccccc4)N3[C@@H]2c2ccc(OCCO)cc2)cc1	true

Quick check: does `CC1=C2[C@@H](CCc3ccccc3)OB(O)C[C@@H]2n2c(=O)n(-c3ccccc3)c(=O)n2C1` have z-score greater than or equal to 0.6? false

====

ASSAY NOTES: small-molecule microarray binders of probe aCHRDL2, primary screen, biochemical, biotinylated probe, 635/667 nm fluorescence (AID 1100)
SETUP CONDITIONS: higher = more signal
# class assignment by measured composite z-score: low class: < 0.1; middle class: ≥ 0.1 and < 0.8; high class: ≥ 0.8

Below, 6 molecules whose answers are already recorded.
COCCOC(=O)N1C(=O)[C@@]2(c3cc(C#CCNC(N)=O)ccc31)[C@H](c1ccccc1OCCO)N1[C@H](c3ccccc3)[C@H](c3ccccc3)OC(=O)[C@H]1[C@@H]2C(N)=O	middle class
COc1ccc(C(O)C2C=CC3C(=O)N(C)C(=O)C3N2Nc2ccccc2)cc1OCc1ccccc1 (stereo not given)	high class
CN1C=C(C(=O)OCCS(C)(=O)=O)C(C(=O)OCCS(C)(=O)=O)=CC(CCCO)=CC1C1CC1 (stereo not given)	low class
[N-]=[N+]=NCc1ccccc1C[C@]1(C(=O)NCC(O)CO)N=C(c2ccc(OCCCO)cc2)O[C@H]1c1ccccc1N=[N+]=[N-] (stereo not given in full)	high class
COCCOC(=O)N1C(=O)[C@@]2(c3cc(C#CCCO)ccc31)[C@H](c1ccc(O)cc1)N1[C@H](c3ccccc3)[C@H](c3ccccc3)OC(=O)[C@H]1[C@@H]2C(N)=O	middle class
CCOC(=O)C[C@H]1[C@H](OC(=O)c2ccc(C(=O)c3ccccc3)cc2)[C@@H](NC(=O)C2CCCCC2)c2cc(OCCCO)ccc2N1C(=O)c1ccccc1	low class

Field: class (composite z-score) — entry: `NC(=O)NCC#Cc1ccc2c(c1)[C@]1(C(=O)N2)[C@H](C(=O)NC[C@H](O)c2ccccc2)[C@H]2C(=O)O[C@H](c3ccccc3)[C@H](c3ccccc3)N2[C@@H]1c1ccc(O)cc1` low class

Field: class (composite z-score) — entry: `COC(=O)[C@]1(Cc2ccccc2N=[N+]=[N-])N=C(c2ccc(OCCCO)cc2)O[C@@H]1c1ccccc1N=[N+]=[N-]` middle class

Field: class (composite z-score) — entry: `COC(=O)[C@@]1(Cc2ccc(OC)cc2)[C@H]2c3cc(C(=O)N(C)C)n(Cc4c(OC)[nH]cc(C)c4=O)c3C[C@H]2CN1C(=O)c1ccccc1` middle class

Field: class (composite z-score) — entry: CS(=O)(=O)CCOC(=O)C1=CC(CCCO)=CC(c2cccs2)N(Cc2cc3c(cc2Br)OCO3)C=C1C(=O)OCCS(C)(=O)=O (stereo not given) middle class

====

ASSAY NOTES: splicing luciferase reporter signal modulators, primary screen, spliceosome inhibition project, cell-based, HEK293, splice +/- reporter (AID 1101);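 note: HEK293 cells carrying a splicing-competent luciferase reporter gene; test concentration not given here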
SETUP CONDITIONS: luminescence, 24 h, higher = more signal, called active from +8 up or from −8 down
Assign class by z-score: not lower than -0.3 means Yes; lower than -0.3 means No.

Below, 5 compounds whose answers are already recorded.
CC(C)NC(=O)[C@@]1(Cc2ccccc2I)c2ccccc2C(=O)N(Cc2ccccc2)[C@H]1c1ccc(CO)cc1	Yes
C[N+](C)(C)CCCCCCNC(=O)[C@H]1C[C@H]2C(=O)N3CCC[C@H]3C(=O)N2[C@H]1c1ccc(O)cc1	No
N#Cc1ccc(NN2C(C(O)C3CCCCC3)C=CC3C(=O)N(c4ccccc4)C(=O)C32)cc1 (stereo unspecified)	Yes
O=C/C=C/c1ccc2c(c1)OCO2	No
CN(C)CCCCCCNC(=O)[C@H]1C[C@H]2C(=O)N[C@@H](CCCCN)C(=O)N2[C@H]1c1ccc(O)cc1	Yes

Quick check: does `C=CCOC(=O)[C@@H]1[C@H]2C(=O)O[C@H](c3ccccc3)[C@H](c3ccccc3)N2[C@H](c2ccc(OCCOC(=O)[C@@H]3C[C@@H]4C(=O)NCC(=O)N4[C@@H]3c3cccc(OCCO)c3)cc2)[C@@]12C(=O)Nc1ccc(I)cc12` have z-score greater than or equal to -0.3? No

Quick check: does `CN(C)C(=O)[C@]1(CCC(=O)OC(C)(C)C)N=C(c2ccc(OCCCO)cc2)O[C@@H]1c1ccccc1N=[N+]=[N-]` have z-score greater than or equal to -0.3? Yes

Quick check: does Cc1ccccc1C(O)C1C=CC2C(=O)N(C)C(=O)C2N1Nc1ccccc1 (stereo unspecified) have z-score greater than or equal to -0.3? Yes

====

TARGET OR SYSTEM: Fibroblast growth factor 10 (Homo sapiens) (UniProt O15520)
Sequence (O15520 whole entry, looked up): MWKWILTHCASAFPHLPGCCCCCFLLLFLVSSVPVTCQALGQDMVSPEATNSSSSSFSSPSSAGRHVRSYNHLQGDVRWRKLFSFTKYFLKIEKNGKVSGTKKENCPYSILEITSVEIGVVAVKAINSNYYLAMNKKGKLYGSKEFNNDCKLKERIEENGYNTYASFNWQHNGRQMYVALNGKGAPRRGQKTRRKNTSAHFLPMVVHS
ASSAY NOTES: FGF10 binders on small-molecule microarrays, primary screen, biochemical, small-molecule microarray, 635 nm fluorescence (AID 1102)
SETUP CONDITIONS: FGF10 binding, fluorescence 635 nm, higher = more signal
Assign class by composite z-score: not lower than 0.4 means satisfied; lower than 0.4 means not satisfied.

CCCCCN1CC=CC23O[C@@H]4C=CCOC(=O)[C@@H]4[C@H]2C(=O)N(CCCO)[C@@H]3C1=O (stereo partly specified)	not satisfied
Cc1ccc(S[C@]2(C(=O)NCc3ccccc3)CC(=O)N(Cc3ccccc3)[C@@H]2c2ccc(CO)cc2)cc1	not satisfied
Cc1ccccc1C(O)C1C=CC2C(=O)N(C)C(=O)C2N1Nc1ccccc1 (stereo unspecified)	not satisfied

Quick check: does COC(=O)c1ccc(C(O)C2C=CC3C(=O)N(c4ccccc4)C(=O)C3N2Nc2ccc(C#N)cc2)o1 (stereo unspecified) have composite z-score greater than or equal to 0.4? satisfied

Quick check: does `O=C1O[C@@H](c2ccccc2)[C@@H](c2ccccc2)N2[C@@H](c3ccc(OCCO)cc3)[C@]3(C(=O)Nc4ccc(C#CC5=CCCCC5)cc43)[C@@H](C(=O)O)[C@H]12` have composite z-score greater than or equal to 0.4? satisfied

Quick check: does `O=C(CS)NCCCCCCNC(=O)[C@H]1C[C@H]2C(=O)N3CCC[C@H]3C(=O)N2[C@H]1c1cccc(OCCO)c1` have composite z-score greater than or equal to 0.4? satisfied
